Tested on: RAW264.7
Assay text: Protective activity against Anthrax toxin-induced cytotoxicity in mouse RAW264.7 cells measured by WST-1 method
Type: functional
Study conditions: dose 100 µM
Listed here are molecules together with their documented Activity.
Outcome measure: Activity (%)

> print(dat)
                                   molecule  outcome.measure  op  observed.measurement
1  N=C(N)Nc1ccc(O[C@H]2C[C@@H](Oc3ccc(NC(=N)N)c4ccccc34)[C@H](NC(=N)N)C[C@@H]2NC(=N)N)cc1         Activity   =                    90
2  N=C(N)Nc1ccc(OCCCOc2ccc(NC(=N)N)cc2NC(=N)N)c(NC(=N)N)c1         Activity   =                    50
3  N=C(N)Nc1ccc(O[C@H]2C[C@@H](Oc3ccc(NC(=N)N)cc3NC(=N)N)[C@H](NC(=N)N)C[C@@H]2NC(=N)N)cc1         Activity   >                    80
4  N=C(N)Nc1ccc(OC2CCCC(Oc3ccc(NC(=N)N)cc3NC(=N)N)C2)c(NC(=N)N)c1 (configuration not stated)         Activity   =                    70
5  N=C(N)Nc1ccc(O[C@H]2C[C@@H](Oc3ccc(NC(=N)N)cc3)[C@H](NC(=N)N)C[C@@H]2NC(=N)N)cc1         Activity   >                    90
6  N=C(N)Nc1ccc(O[C@H]2C[C@@H](Oc3ccc(NC(=N)N)c4ccccc34)[C@H](NC(=N)N)C[C@@H]2NC(=N)N)c2ccccc12         Activity   =                    80
7  N=C(N)Nc1ccc(O[C@H]2C[C@@H](Oc3ccc(NC(=N)N)cn3)[C@H](NC(=N)N)C[C@@H]2NC(=N)N)nc1         Activity   =                    80

###

Listed here are compounds together with their documented log10 of Ki.
Target: Furin (Homo sapiens)
Assay text: Inhibition of Recombinant vaccinia-expressed furin (unknown origin) using Pyr-RTKR-MCA as substrate and measured by fluorescence based assay
Outcome measure: log10 of Ki (log10 of the value in nM)

> print(dat)
                                   compound                target  observed.measurement
1  N=C(N)Nc1ccc(Oc2cccc(Oc3ccc(NC(=N)N)cc3)c2)cc1  Furin (Homo sapiens)                  3.18
2  N=C(N)Nc1ccc(Oc2cccc(Oc3ccc(NC(=N)N)cc3NC(=N)N)c2)c(NC(=N)N)c1  Furin (Homo sapiens)                  2.60
3  N=C(N)Nc1ccc(OCCCOc2ccc(NC(=N)N)cc2NC(=N)N)c(NC(=N)N)c1  Furin (Homo sapiens)                  3.43
4   N=C(N)Nc1ccc(OCCCOc2ccc(NC(=N)N)cc2)cc1  Furin (Homo sapiens)                  3.92
5  N=C(N)Nc1ccc(O[C@H]2C[C@@H](Oc3ccc(NC(=N)N)cc3NC(=N)N)[C@H](NC(=N)N)C[C@@H]2NC(=N)N)cc1  Furin (Homo sapiens)                  1.95
6  N=C(N)Nc1ccc(OC2CCCC(Oc3ccc(NC(=N)N)cc3NC(=N)N)C2)c(NC(=N)N)c1 (configuration not stated)  Furin (Homo sapiens)                  3.08
7  N=C(N)Nc1ccc(OC2CCCC(Oc3ccc(NC(=N)N)cc3)C2)cc1 (configuration not stated)  Furin (Homo sapiens)                  3.74

###

Listed here are compounds together with their documented pXC50.
Target: UniProtKB P09958
Assay text: Inhibition of furin in human U2OS cells measured after 24 hrs by fluorescence assay
Assay type: cell-based
Outcome measure: pXC50

> print(dat)
                              line.notation  outcome.measure  observed.measurement
1  O=C(O)CC1CCN(Cc2cc(Oc3cnc(N4CCN(CCO)CC4)nc3)nc(-c3cc(Cl)cc(Cl)c3)c2)CC1            pXC50                   7.6
2  CC(=O)NCC1CCN(Cc2cc(Oc3ccc(N4CCN(CCS(C)(=O)=O)CC4)nc3)nc(-c3cc(Cl)cc(Cl)c3)c2)CC1            pXC50                   7.6
3  CC(=O)NCC1CCN(Cc2cc(Oc3ccc(N4CCN(CC(=O)O)CC4)nc3)nc(-c3cc(Cl)cc(Cl)c3)c2)CC1            pXC50                   6.9
4  CC(=O)NCC1CCN(Cc2cc(Oc3cnc(N4CCN(CCC(=O)O)CC4)nc3)nc(-c3cc(Cl)cc(Cl)c3)c2)CC1            pXC50                     8
5  CS(=O)(=O)CCCN1CCN(c2ncc(Oc3cc(CN4CCC(CC(=O)O)CC4)cc(-c4cc(Cl)cc(Cl)c4)n3)cn2)CC1            pXC50                   7.6
6  CC(=O)NCC1CCN(Cc2cc(Oc3ccc(N4CCN(CCC(=O)O)CC4)nc3)nc(-c3cc(Cl)cc(Cl)c3)c2)CC1            pXC50                   7.6
7  CN1CCN(c2cnc(Oc3cc(CN4CCC(CC(=O)O)CC4)cc(-c4cc(Cl)cc(Cl)c4)n3)cn2)CC1            pXC50                   7.3

###

Target: Furin (Homo sapiens, UniProt P09958)
Sequence (P09958 whole entry): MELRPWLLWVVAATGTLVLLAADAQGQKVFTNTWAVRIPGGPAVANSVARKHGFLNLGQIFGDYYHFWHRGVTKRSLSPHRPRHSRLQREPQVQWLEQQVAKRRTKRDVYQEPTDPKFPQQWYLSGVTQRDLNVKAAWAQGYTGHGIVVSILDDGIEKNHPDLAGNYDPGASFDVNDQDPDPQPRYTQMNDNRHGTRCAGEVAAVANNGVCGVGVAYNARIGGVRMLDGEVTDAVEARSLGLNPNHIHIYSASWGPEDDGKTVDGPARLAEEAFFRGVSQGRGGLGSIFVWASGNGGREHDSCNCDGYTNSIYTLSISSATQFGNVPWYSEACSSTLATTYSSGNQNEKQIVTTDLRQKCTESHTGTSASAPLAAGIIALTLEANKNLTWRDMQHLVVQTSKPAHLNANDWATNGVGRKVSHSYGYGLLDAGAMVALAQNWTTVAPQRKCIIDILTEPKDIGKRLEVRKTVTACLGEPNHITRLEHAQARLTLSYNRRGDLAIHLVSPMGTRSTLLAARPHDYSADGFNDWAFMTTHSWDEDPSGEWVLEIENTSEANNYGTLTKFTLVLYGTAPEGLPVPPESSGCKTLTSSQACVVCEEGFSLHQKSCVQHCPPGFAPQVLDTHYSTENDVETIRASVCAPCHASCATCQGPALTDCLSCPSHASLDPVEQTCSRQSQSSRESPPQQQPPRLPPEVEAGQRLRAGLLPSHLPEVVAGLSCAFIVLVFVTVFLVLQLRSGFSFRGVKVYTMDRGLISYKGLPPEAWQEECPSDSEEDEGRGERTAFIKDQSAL
Assay text: Inhibition of furin (unknown origin) using Pyr-RTKR-MCA as substrate incubated for 30 mins and measured by FRET assay
Listed here are molecules together with their documented Ki.
Outcome measure: Ki (nM)

> print(dat)
                                   molecule  unit.string  observed.measurement
1  Cc1cc(O[C@H]2C[C@@H](Oc3ccc(C(=N)N)c(C)c3)[C@H](NC(=N)N)C[C@@H]2NC(=N)N)ccc1C(=N)N           nM                    10
2  N=C(N)N[C@H]1C[C@@H](NC(=N)N)[C@H](Oc2ccc(C(=N)N)cc2)C[C@@H]1Oc1ccc(C(=N)N)cc1           nM                     2
3  N=C(N)N[C@H]1C[C@@H](NC(=N)N)[C@H](Oc2ccc(C(=N)N)cc2C(=N)N)C[C@@H]1Oc1ccc(C(=N)N)cc1C(=N)N           nM                   100
4  N=C(N)N[C@H]1C[C@@H](NC(=N)N)[C@H](Oc2ccc(C(=N)N)cn2)C[C@@H]1Oc1ccc(C(=N)N)cn1           nM                    20
5  N=C(N)c1ccc(Oc2cccc(Oc3ccc(C(=N)N)cc3)c2)cc1           nM                   100
6  N=C(N)c1ccc(OC2CCCC(Oc3ccc(C(=N)N)cc3)C2)cc1 (centres undefined)           nM                  1000
7  N=C(N)N[C@H]1C[C@@H](NC(=N)N)[C@H](Oc2ccc(C(=N)N)c3ccccc23)C[C@@H]1Oc1ccc(C(=N)N)c2ccccc12           nM                    50
8  N=C(N)N[C@H]1C[C@@H](NC(=N)N)[C@H](Oc2ccc(C(=N)N)cc2Cl)C[C@@H]1Oc1ccc(C(=N)N)cc1Cl           nM                     5
9  N=C(N)c1ccc(/N=N/Nc2ccc(C(=N)N)cc2)cc1 [DIMINAZENE]           nM                  5420

###

Test system: RAW264.7
Assay text: Protective activity against Anthrax toxin-induced cytotoxicity in mouse RAW264.7 cells measured by WST-1 method
Type: functional
Study conditions: dose 100 µM
Listed here are molecules together with their documented Activity.
Outcome measure: Activity (%)

> print(dat)
                                   molecule  outcome.measure  op  observed.measurement
1  N=C(N)Nc1ccc(O[C@H]2C[C@@H](Oc3ccc(NC(=N)N)c4ccccc34)[C@H](NC(=N)N)C[C@@H]2NC(=N)N)c(NC(=N)N)c1         Activity   =                    50
2  N=C(N)Nc1ccc(OC2CCCC(Oc3ccc(NC(=N)N)cc3)C2)cc1 (stereo not given)         Activity   =                    30
3  N=C(N)Nc1ccc(Oc2cccc(Oc3ccc(NC(=N)N)cc3)c2)cc1         Activity   =                    70
4  N=C(N)Nc1ccc(O[C@H]2C[C@@H](Oc3ccc(NC(=N)N)cc3NC(=N)N)[C@H](NC(=N)N)C[C@@H]2NC(=N)N)c(NC(=N)N)c1         Activity   >                    80
5  N=C(N)Nc1ccc(Oc2cccc(Oc3ccc(NC(=N)N)cc3NC(=N)N)c2)c(NC(=N)N)c1         Activity   =                   100
